# ASSAY TARGET: hERG potassium channels (Homo sapiens, UniProt Q12809)
# Sequence (Q12809 whole entry): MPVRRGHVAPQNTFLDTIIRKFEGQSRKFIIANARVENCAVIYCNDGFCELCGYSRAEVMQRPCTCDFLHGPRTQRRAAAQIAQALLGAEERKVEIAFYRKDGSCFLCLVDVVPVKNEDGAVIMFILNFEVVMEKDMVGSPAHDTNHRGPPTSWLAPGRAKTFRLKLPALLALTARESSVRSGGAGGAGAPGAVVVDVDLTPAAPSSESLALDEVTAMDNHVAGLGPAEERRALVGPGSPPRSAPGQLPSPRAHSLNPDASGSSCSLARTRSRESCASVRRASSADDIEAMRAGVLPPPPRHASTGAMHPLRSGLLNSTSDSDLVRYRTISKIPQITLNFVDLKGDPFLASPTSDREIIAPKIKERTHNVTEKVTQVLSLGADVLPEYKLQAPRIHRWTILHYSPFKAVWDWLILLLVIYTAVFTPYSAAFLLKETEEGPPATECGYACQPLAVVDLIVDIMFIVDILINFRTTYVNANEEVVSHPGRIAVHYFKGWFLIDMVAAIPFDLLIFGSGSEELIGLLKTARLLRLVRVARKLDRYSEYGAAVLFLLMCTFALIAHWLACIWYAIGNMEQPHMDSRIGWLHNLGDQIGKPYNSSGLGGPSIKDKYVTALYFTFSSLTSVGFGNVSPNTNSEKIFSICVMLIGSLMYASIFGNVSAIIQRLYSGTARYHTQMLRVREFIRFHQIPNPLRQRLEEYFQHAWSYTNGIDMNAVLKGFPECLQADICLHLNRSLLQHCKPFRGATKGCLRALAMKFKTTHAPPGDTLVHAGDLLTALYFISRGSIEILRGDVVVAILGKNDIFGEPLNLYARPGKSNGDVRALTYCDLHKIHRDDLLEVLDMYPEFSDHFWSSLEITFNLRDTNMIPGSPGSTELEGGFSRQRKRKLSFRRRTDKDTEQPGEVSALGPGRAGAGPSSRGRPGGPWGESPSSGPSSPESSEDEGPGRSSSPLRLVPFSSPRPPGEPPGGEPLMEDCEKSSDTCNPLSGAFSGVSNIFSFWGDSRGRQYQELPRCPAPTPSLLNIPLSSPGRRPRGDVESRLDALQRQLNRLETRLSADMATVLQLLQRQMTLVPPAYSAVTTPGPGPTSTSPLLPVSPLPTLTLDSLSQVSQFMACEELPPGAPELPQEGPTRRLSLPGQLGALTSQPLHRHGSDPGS
# ASSAY PROTOCOL: cell-based
Below, each of the molecules is paired with its reported IC50 value.
Report the value in µM with no unit label.

// below: answered molecules
MOLECULE	IC50, µM
C=CC(=O)N(C)CCOc1c(N)ncnc1-c1cc(F)cc(NC(=O)c2cc3c(cc2F)C(C)(C)CO3)c1C [Example 8]	10
C=CC(=O)N(CCF)CCOc1c(N)ncnc1-c1cc(F)cc(NC(=O)c2ccc3c(c2F)OCC3(C)C)c1C [Example 30]	20

Continue with the next molecule.
Data point: C=CC(=O)N(CC)CCOc1c(N)ncnc1-c1cc(F)cc(NC(=O)c2ccc3c(c2F)OCC3(C)C)c1C [Example 29] ; IC50 = 16

###

# ASSAY TARGET: BTK recombinant human protein (Homo sapiens, UniProt Q06187)
# Construct: purchased Thermo PV3363
# Sequence (Q06187 whole entry): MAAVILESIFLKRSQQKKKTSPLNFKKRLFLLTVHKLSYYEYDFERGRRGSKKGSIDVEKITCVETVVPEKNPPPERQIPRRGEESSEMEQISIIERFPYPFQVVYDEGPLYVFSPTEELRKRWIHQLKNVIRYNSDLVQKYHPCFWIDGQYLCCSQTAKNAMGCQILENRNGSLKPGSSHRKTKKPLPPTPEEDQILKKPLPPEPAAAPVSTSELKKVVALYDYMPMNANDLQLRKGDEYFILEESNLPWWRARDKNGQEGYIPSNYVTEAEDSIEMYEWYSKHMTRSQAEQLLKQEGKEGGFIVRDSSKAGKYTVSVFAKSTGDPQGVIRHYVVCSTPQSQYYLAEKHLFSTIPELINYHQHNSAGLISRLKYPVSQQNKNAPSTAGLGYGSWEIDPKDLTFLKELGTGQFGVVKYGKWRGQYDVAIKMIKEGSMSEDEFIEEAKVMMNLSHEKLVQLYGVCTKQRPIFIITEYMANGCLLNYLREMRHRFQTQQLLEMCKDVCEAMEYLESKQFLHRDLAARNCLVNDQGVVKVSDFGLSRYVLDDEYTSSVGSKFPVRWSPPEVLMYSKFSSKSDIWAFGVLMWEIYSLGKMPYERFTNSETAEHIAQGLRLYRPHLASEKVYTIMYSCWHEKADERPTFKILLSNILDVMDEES
# ASSAY PROTOCOL: Inhibitory activity against BTK (HTRF KinEASE-TK kit)
# Type: biochemical
# CONDITIONS USED: read-out: IC50 values of inhibitory activity against BTK; 2 nM BTK, 10 µM ATP, 0.5 hours preincubation at 25°C
Below, each of the compounds is paired with its reported IC50 value.
Report the value in nM with no unit label.

SMILES RECORD	READOUT UNIT	VALUE OBSERVED
C=CC(=O)N(C)CCOc1c(N)ncnc1-c1cc(F)cc(NC(=O)c2sc3c(c2F)C2(CC3)CC2)c1C	nM	6.15
C=CC(=O)N(C)CCOc1c(N)ncnc1-c1cc(F)cc(NC(=O)c2cc3c(cc2F)C2(CC3)CC2)c1CO	nM	4.2
C=CC(=O)N(C)CCOc1c(N)ncnc1-c1cc(F)cc(NC(=O)c2ccc3c(c2F)OC(C)(C)C3)c1C	nM	5.1

Continue with the next compound.
Data point: C=CC(=O)N(C)CCOc1c(N)ncnc1-c1cc(F)cc(NC(=O)c2sc3c(c2F)CC(C)(C)C3)c1C ; IC50 = 6.3

###

# ASSAY TARGET: BTK recombinant human protein (Homo sapiens, UniProt Q06187)
# Construct: purchased Thermo PV3363
# ASSAY PROTOCOL: Inhibitory activity against BTK (HTRF KinEASE-TK kit)
# Assay type: biochemical
# CONDITIONS USED: 2 nM BTK, 10 µM ATP, 0.5 hours preincubation at 25°C; read-out: IC50 values of inhibitory activity against BTK
Below, each of the compounds is paired with its reported pIC50 value.
// returns pIC50 (minus log10 of molar concentration), number only

// below: answered compounds
SMILES RECORD	ASSAY TARGET	pIC50
C=CC(=O)N(C)CCOc1c(N)ncnc1-c1cc(F)cc(NC(=O)c2cc3c(cc2F)C(C)(C)CC3)c1C	BTK recombinant human protein (Homo sapiens, UniProt Q06187)	8.40
C=CC(=O)N(CCF)CCOc1c(N)ncnc1-c1cc(F)cc(NC(=O)c2ccc3c(c2F)OCC3(C)C)c1C	BTK recombinant human protein (Homo sapiens, UniProt Q06187)	8.81
C=CC(=O)N(C)CCOc1c(N)ncnc1-c1cc(F)cc(NC(=O)c2cc3c(cc2F)C(C)(C)CO3)c1C	BTK recombinant human protein (Homo sapiens, UniProt Q06187)	8.21

Data point: C=CC(=O)N(C)CCOc1c(N)ncnc1-c1cc(F)cc(NC(=O)c2cc3c(cc2F)C2(CC2)CO3)c1C ; pIC50 = 8.08

###

# ASSAY TARGET: BTK recombinant human protein (Homo sapiens, UniProt Q06187)
# Construct: purchased Thermo PV3363
# ASSAY PROTOCOL: Inhibitory activity against BTK (HTRF KinEASE-TK kit)
# Assay type: biochemical
# CONDITIONS USED: 2 nM BTK, 10 µM ATP, 0.5 hours preincubation at 25°C; read-out: IC50 values of inhibitory activity against BTK
READOUT LABEL: pIC50
// returns pIC50 (minus log10 of molar concentration), number only

SMILES RECORD	VALUE OBSERVED
[2H]C([2H])([2H])N(CCOc1c(N)ncnc1-c1cc(F)cc(NC(=O)c2cc3c(cc2F)C2(CC3)CC2)c1C)C(=O)C=C	8.05

Data point: C=CC(=O)N(C)CCOc1c(N)ncnc1-c1cc(F)cc(NC(=O)c2cc3c(cc2F)C2(CC3)CC2)c1C ; pIC50 = 8.22

Data point: [2H]C([2H])([2H])N(CCOc1c(N)ncnc1-c1cc(F)cc(NC(=O)c2ccc3c(c2F)OCC32CC2)c1C)C(=O)C=C ; pIC50 = 8.42

Data point: C=CC(=O)N(C)CCOc1c(N)ncnc1-c1cc(F)cc(NC(=O)c2ccc3c(c2F)OCC32CC2)c1C ; pIC50 = 8.16

Data point: [2H]C([2H])([2H])N(CCOc1c(N)ncnc1-c1cc(F)cc(NC(=O)c2cc3c(cc2F)C2(CC2)CO3)c1C)C(=O)C=C ; pIC50 = 8.24

Data point: C=CC(=O)N1C[C@H](F)C[C@H]1COc1c(N)ncnc1-c1cc(F)cc(NC(=O)c2ccc3c(c2F)OCC3(C)C)c1C ; pIC50 = 8.81

Data point: C=CC(=O)N(CC)CCOc1c(N)ncnc1-c1cc(F)cc(NC(=O)c2ccc3c(c2F)OCC3(C)C)c1C ; pIC50 = 8.76

###

# ASSAY TARGET: UniProt Q12809
# ASSAY PROTOCOL: cell-based
Below, each of the compounds is paired with its reported IC50 value.
Report the value in µM with no unit label.

// below: answered compounds
COMPOUND	VALUE OBSERVED
C=CC(=O)N(C)CCOc1c(N)ncnc1-c1cc(F)cc(NC(=O)c2ccc3c(c2F)OCC3(C)C)c1C [Example 7]	17
C=CC(=O)N(C)CCOc1c(N)ncnc1-c1cc(F)cc(NC(=O)c2ccc3c(c2)OCC3(C)C)c1C [Example 27]	12
C=CC(=O)N1C[C@H](F)C[C@H]1COc1c(N)ncnc1-c1cc(F)cc(NC(=O)c2ccc3c(c2F)OCC3(C)C)c1C [Example 32]	12

Continue with the next compound.
Data point: [2H]C([2H])(CN(C)C(=O)C=C)Oc1c(N)ncnc1-c1cc(F)cc(NC(=O)c2ccc3c(c2F)OCC3(C)C)c1C [Example 28] ; IC50 = 14

The measurements presented in this section are drawn from patent EP4782437A1.
